The origin of these recorded values is patent US10329309B2.

Please provide measured EC50 for the entries that follow.
test system: primary human fibroblasts derived from IPF patients (LL29 cells), α-smooth muscle actin (αSMA); test: Inhibition of the fibrotic process: TGF-β1-treated primary human fibroblasts from IPF patients, αSMA staining; assay type: cell-based; conditions: Fibroblast, 96 h, LL29 fibroblasts from IPF patients, TGF-β1 20 ng/mL, 4 days, inhibition of fibrotic process
Give bare numbers, in µM.

* CN(C)CC(=O)Nc1cncc(-c2ccc3[nH]nc(-c4nc5c(-c6cccc(F)c6)ccnc5[nH]4)c3n2)c1 [Compound 969] | 4.93
* O=C(Nc1cncc(-c2ccc3[nH]nc(-c4nc5c(-c6ccccc6F)ccnc5[nH]4)c3n2)c1)C1CCCC1 [Compound 78] | 2.83

Noted for CN(C)Cc1cncc(-c2ccc3[nH]nc(-c4nc5c(N6CCCCC6)ccnc5[nH]4)c3n2)c1 [Compound 181] : its EC50 reads 1.36

====

system: primary human mesenchymal stem cells (hMSCs); assay: Induction of chondrogenesis in primary human mesenchymal stem cells (nodule imaging, Rhodamine B/Nile Red); format: cell-based; conditions: hMSC chondrogenesis, TGF-β3 as positive control, read-out: Max. Activity as % TGF-β3 activity
Please provide measured Emax for the entries that follow.
Answers are plain numbers, in %.

Solved entries:
* CN(C)Cc1cncc(-c2ccc3[nH]nc(-c4nc5c(-c6cccs6)ccnc5[nH]4)c3n2)c1 [Compound 349] | 108
* Fc1cccc(-c2ccnc3[nH]c(-c4n[nH]c5ccc(C6CCNCC6)nc45)nc23)c1 [Compound 505] | 51
* Fc1cccc(-c2ccnc3[nH]c(-c4n[nH]c5ccc(-c6cncc(OC7CCNCC7)c6)nc45)nc23)c1 [Compound 512] | 93
* CCCCC(=O)Nc1cncc(-c2ccc3[nH]nc(-c4nc5c(-c6ccccn6)ccnc5[nH]4)c3n2)c1 [Compound 159] | 60
* CC(C)Nc1cncc(-c2ccc3[nH]nc(-c4nc5c(-c6cccnc6)ccnc5[nH]4)c3n2)c1 [Compound 96] | 113
* CCNCc1cncc(-c2ccc3[nH]nc(-c4nc5c(-c6ccoc6)ccnc5[nH]4)c3n2)c1 [Compound 314] | 32

Now look at this one.
Noted for O=C(Nc1cncc(-c2ccc3[nH]nc(-c4nc5c(-c6ccncc6)ccnc5[nH]4)c3n2)c1)C1CCCCC1 [Compound 135] : its Emax reads 69

====

Please provide measured EC50 for the entries that follow.
test system: primary human fibroblasts derived from IPF patients (LL29 cells), α-smooth muscle actin (αSMA); test: Inhibition of the fibrotic process: TGF-β1-treated primary human fibroblasts from IPF patients, αSMA staining; type: cell-based; details: Fibroblast, 96 h, LL29 fibroblasts from IPF patients, TGF-β1 20 ng/mL, 4 days, inhibition of fibrotic process
One number for each entry, in µM.

Solved entries:
* Nc1cncc(-c2ccc3[nH]nc(-c4nc5c(-c6ccccc6F)ccnc5[nH]4)c3n2)c1 [Compound 59] | 2.41
* O=C(CC1CCNCC1)Nc1cncc(-c2ccc3[nH]nc(-c4nc5c(-c6ccccn6)ccnc5[nH]4)c3n2)c1 [Compound 593] | 0.913

Now look at this one.
Noted for CC(C)(C)CC(=O)Nc1cncc(-c2ccc3[nH]nc(-c4nc5cccnc5[nH]4)c3n2)c1 [Compound 268] : its EC50 reads 7.2

====

Tested on: primary human fibroblasts derived from IPF patients (LL29 cells), α-smooth muscle actin (αSMA)
Experiment: Inhibition of the fibrotic process: TGF-β1-treated primary human fibroblasts from IPF patients, αSMA staining
Assay type: cell-based
Settings: Fibroblast, 96 h, LL29 fibroblasts from IPF patients, TGF-β1 20 ng/mL, 4 days, inhibition of fibrotic process
Description: Representative compounds were screened using primary human fibroblasts (derived from IPF patients) treated with TGF-β1 to determine their ability to inhibit the fibrotic process. […]
outcomeMeasure: pEC50
One number for each entry, as −log10 of the molar value.

List the reported pEC50 of each compound below.
1. CCNCc1cncc(-c2ccc3[nH]nc(-c4nc5c(-c6ccccn6)ccnc5[nH]4)c3n2)c1
2. CCCC(=O)Nc1cncc(-c2ccc3[nH]nc(-c4nc5c(-c6ccsc6)ccnc5[nH]4)c3n2)c1
3. c1ccc(COc2cncc(-c3ccc4[nH]nc(-c5nc6c(-c7ccncc7)ccnc6[nH]5)c4n3)c2)cc1
4. Cn1cc(-c2ccc3[nH]nc(-c4nc5c(-c6ccc(F)cc6)ccnc5[nH]4)c3n2)c(CO)n1
5. Cc1ccc(-c2ccnc3[nH]c(-c4n[nH]c5ccc(-c6cncc(NC(=O)C7CCCC7)c6)nc45)nc23)s1
6. CN1CCN(c2ccnc3[nH]c(-c4n[nH]c5ccc(-c6cncc(NC(=O)C7CCCC7)c6)nc45)nc23)CC1

[out]
[5.95, 6.39, 6.19, 6.47, 7.18, 5.65]
